compounds and their reported inhibition
target: Ribosomal protein S6 kinase alpha-5 (Homo sapiens); details: at 0.1 µM;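 further: mean inhibition of MSK1 reported, from a GSK PKIS inhibitor set screen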

COMPOUND	inhibition (%)
NC(=O)c1cc(-c2ccc(F)cc2)cc(-c2ccncc2)c1N	2.2
NC(=O)Cc1ccccc1Oc1nccc(-c2c(-c3ccc(F)cc3)ncn2C2CCNCC2)n1	2.22
CN1CCN(CCCNc2nc3ccc(Oc4ccc(NC(=O)Nc5cc(C(F)(F)F)ccc5F)cc4)cc3[nH]2)CC1	1.13
Nc1nccc(-c2c(-c3ccc(F)cc3)ncn2C2CCC(O)CC2)n1 (stereo not given)	-1.03
C[C@@H](Oc1cc(-n2cnc3ccc(OCC4CCN(C)CC4)cc32)sc1C(N)=O)c1ccccc1Cl	4.97
c1ccc(Oc2ccc(Nc3ncc(-c4ccccc4)o3)cc2)cc1	0.98
CN(c1ccc(NC(=O)Nc2c(Cl)cccc2Cl)cc1)c1ccnc(Nc2cccc(CS(C)(=O)=O)c2)n1	2.92
COc1ccc2ncn(-c3cc(O[C@H](C)c4ccccc4Cl)c(C(N)=O)s3)c2c1	2.21
O=C(Nc1ccc(Oc2ccc3[nH]c(NC(=O)c4ccccc4)nc3c2)cc1)Nc1cc(C(F)(F)F)ccc1F	4.16
COc1cc(Nc2ncc3c(C)nc(-c4cccc(C(F)(F)F)c4)n3n2)cc(OC)c1OC	2.79
O=C1Nc2ccccc2/C1=C/Nc1ccc(-n2cncn2)cc1	5.48
Cc1nnc(-c2ccc(C)c(-c3ccc(C(=O)NCc4ccc(Cl)cc4)cc3)c2)o1	1.45
O=C(Nc1n[nH]c2nc(-c3ccc(O)cc3)c(Br)cc12)C1CC1	5.22
Fc1ccc(-c2c(-c3ccncc3)nc3n2CCS3)cc1	3.9
NCc1ccc(-n2c(-c3nonc3N)nc3cnccc32)cc1	54.7
COc1cc2ncn(-c3cc(OCc4cccs4)c(C(N)=O)s3)c2cc1OC	2.22
COc1cc2ncn(-c3cc(OCc4ccccc4C(F)(F)F)c(C(C)=O)s3)c2cc1OC	1.02
Fc1ccc(-c2ncn(CCCN3CCOCC3)c2-c2ccncc2)cc1	0.01
NS(=O)(=O)c1ccc(N/N=C2\C(=O)Nc3ccc(C(=O)NCCCn4ccnc4)cc32)cc1	9.46
Cc1ccc(NC(=O)c2ccoc2)cc1-c1ccc(C(=O)NCC2CC2)cc1	0.76
